Reported IC50 is given for each of the following compounds.
# System: 945468-187-T-J2-PDC spheroids viability
# run-description: Anticancer human tumor 945468-187-T-J2-PDC patient-derived rectal carcinoma cell line growth inhibition [PI3K]
# study-conditions: curve of first compound; second compound 0.0316 µM; spheroids with HUVEC and MSC

| compound | IC50 |
| --- | --- |
| CC(Cn1ccc(-c2ccc(C#N)c(Cl)c2)n1)NC(=O)c1cc(C(C)O)[nH]n1 (stereo not drawn) + CC(Nc1ccc2c(c1)OCCn1cc(N3C(=O)OCC3C(F)F)nc1-2)C(N)=O | > 10 µM |
| CC1(C)CCC(Nc2ncc(C(F)(F)F)c(-c3c[nH]c4c(P(C)(C)=O)c(C#N)ccc34)n2)CN1 (stereo not drawn) + COc1c(OCCCN2CCOCC2)ccc2c3n(c(=NC(=O)c4cnc(N)nc4)nc12)CCN3 | 0.745 µM |
| CC(C)NCC(C(=O)N1CCN(c2ncnc3c2C(C)CC3O)CC1)c1ccc(Cl)cc1 (stereo not drawn) + CC(Nc1ncnc2nc[nH]c12)c1cc2cccc(Cl)c2c(=O)n1-c1ccccc1 | > 10 µM |

###

# Tested on: 945468-187-T-J2-PDC spheroids viability
# run-description: Anticancer human tumor 945468-187-T-J2-PDC cell line growth inhibition [PI3K];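 also: spheroids exposed to compounds for seven days before reading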
# study-conditions: second compound 0.1 µM; first compound 0.0316 µM; stronger effect = lower value; spheroids with HUVEC and MSC
# Text: Combinatorial screen of targeted agents with the PI3K inhibitors inavolisib, alpelisib, duvelisib, and copanlisib in multi-cell type tumor spheroids A high-throughput screen of multi-cell type tumor spheroids was designed to identify active combinations of targeted small molecules and PI3K pathway inhibitors. […] Compounds. […] If the clinical Cmax for an agent had not been determined, the highest concentration tested was 10 microM. […]
reported-endpoint: viability, T/C (%)

| molecule | reported-endpoint | unit-of-measure | reported |
| --- | --- | --- | --- |
| C=CC(=O)N1CCN(c2nc(=O)n(-c3c(C)ccnc3C(C)C)c3nc(-c4c(O)cccc4F)c(F)cc23)C(C)C1 (configuration not stated) + CC(Nc1ccc2c(c1)OCCn1cc(N3C(=O)OCC3C(F)F)nc1-2)C(N)=O | viability, T/C | % | 127 |
| CNC(=O)c1ccc(N2C(=S)N(c3ccc(C#N)c(C(F)(F)F)c3)C(=O)C2(C)C)cc1F + CC(Nc1ccc2c(c1)OCCn1cc(N3C(=O)OCC3C(F)F)nc1-2)C(N)=O | viability, T/C | % | 103 |
| Cn1nccc1Nc1nccc(-c2ccn(C(CO)c3ccc(Cl)c(F)c3)c(=O)c2)n1 (configuration not stated) + CC(Nc1ccc2c(c1)OCCn1cc(N3C(=O)OCC3C(F)F)nc1-2)C(N)=O | viability, T/C | % | 113 |
| CNC(=O)c1ccc(N2C(=S)N(c3ccc(C#N)c(C(F)(F)F)c3)C(=O)C2(C)C)cc1F + Cc1nc(NC(=O)N2CCCC2C(N)=O)sc1-c1ccnc(C(C)(C)C(F)(F)F)c1 | viability, T/C | % | 95.4 |
| CC(C)n1nc(-c2ccc3oc(N)nc3c2)c2c(N)ncnc21 + CC(Nc1ncnc2nc[nH]c12)c1cc2cccc(Cl)c2c(=O)n1-c1ccccc1 | viability, T/C | % | 115 |
| CC(=O)c1c(C)c2cnc(Nc3ccc(N4CCNCC4)cn3)nc2n(C2CCCC2)c1=O + COc1c(OCCCN2CCOCC2)ccc2c3n(c(=NC(=O)c4cnc(N)nc4)nc12)CCN3 | viability, T/C | % | 85.5 |
| Cn1ncnc1[C@H]1c2n[nH]c(=O)c3cc(F)cc(c23)N[C@@H]1c1ccc(F)cc1 + COc1c(OCCCN2CCOCC2)ccc2c3n(c(=NC(=O)c4cnc(N)nc4)nc12)CCN3 | viability, T/C | % | 84.3 |
| CC(Cn1ccc(-c2ccc(C#N)c(Cl)c2)n1)NC(=O)c1cc(C(C)O)[nH]n1 (configuration not stated) + COc1c(OCCCN2CCOCC2)ccc2c3n(c(=NC(=O)c4cnc(N)nc4)nc12)CCN3 | viability, T/C | % | 79.4 |
| C[C@@H](NC(=O)c1ncnc(N)c1Cl)c1ncc(C(=O)Nc2cc(C(F)(F)F)c(Cl)cn2)s1 + CC(Nc1ncnc2nc[nH]c12)c1cc2cccc(Cl)c2c(=O)n1-c1ccccc1 | viability, T/C | % | 119 |
| CC(C)NCC(C(=O)N1CCN(c2ncnc3c2C(C)CC3O)CC1)c1ccc(Cl)cc1 (configuration not stated) + COc1c(OCCCN2CCOCC2)ccc2c3n(c(=NC(=O)c4cnc(N)nc4)nc12)CCN3 | viability, T/C | % | 87.2 |
| CCN1CCN(Cc2ccc(Nc3ncc(F)c(-c4cc(F)c5nc(C)n(C(C)C)c5c4)n3)nc2)CC1 + CC(Nc1ccc2c(c1)OCCn1cc(N3C(=O)OCC3C(F)F)nc1-2)C(N)=O | viability, T/C | % | 94.3 |
| CC(Cn1ccc(-c2ccc(C#N)c(Cl)c2)n1)NC(=O)c1cc(C(C)O)[nH]n1 (configuration not stated) + Cc1nc(NC(=O)N2CCCC2C(N)=O)sc1-c1ccnc(C(C)(C)C(F)(F)F)c1 | viability, T/C | % | 90.7 |
| CC(C)n1nc(-c2ccc3oc(N)nc3c2)c2c(N)ncnc21 + CC(Nc1ccc2c(c1)OCCn1cc(N3C(=O)OCC3C(F)F)nc1-2)C(N)=O | viability, T/C | % | 101 |
| CC1(C)CCC(Nc2ncc(C(F)(F)F)c(-c3c[nH]c4c(P(C)(C)=O)c(C#N)ccc34)n2)CN1 (configuration not stated) + COc1c(OCCCN2CCOCC2)ccc2c3n(c(=NC(=O)c4cnc(N)nc4)nc12)CCN3 | viability, T/C | % | 86.5 |
| Cn1ncnc1[C@H]1c2n[nH]c(=O)c3cc(F)cc(c23)N[C@@H]1c1ccc(F)cc1 + Cc1nc(NC(=O)N2CCCC2C(N)=O)sc1-c1ccnc(C(C)(C)C(F)(F)F)c1 | viability, T/C | % | 117 |
| C=CC(=O)N1CCN(c2nc(=O)n(-c3c(C)ccnc3C(C)C)c3nc(-c4c(O)cccc4F)c(F)cc23)C(C)C1 (configuration not stated) + COc1c(OCCCN2CCOCC2)ccc2c3n(c(=NC(=O)c4cnc(N)nc4)nc12)CCN3 | viability, T/C | % | 81.4 |
| CC(C)n1nc(-c2ccc3oc(N)nc3c2)c2c(N)ncnc21 + COc1c(OCCCN2CCOCC2)ccc2c3n(c(=NC(=O)c4cnc(N)nc4)nc12)CCN3 | viability, T/C | % | 36.2 |
| CC(Cn1ccc(-c2ccc(C#N)c(Cl)c2)n1)NC(=O)c1cc(C(C)O)[nH]n1 (configuration not stated) + CC(Nc1ncnc2nc[nH]c12)c1cc2cccc(Cl)c2c(=O)n1-c1ccccc1 | viability, T/C | % | 128 |
| CC(=O)c1c(C)c2cnc(Nc3ccc(N4CCNCC4)cn3)nc2n(C2CCCC2)c1=O + Cc1nc(NC(=O)N2CCCC2C(N)=O)sc1-c1ccnc(C(C)(C)C(F)(F)F)c1 | viability, T/C | % | 110 |
| CC(=O)c1c(C)c2cnc(Nc3ccc(N4CCNCC4)cn3)nc2n(C2CCCC2)c1=O + CC(Nc1ccc2c(c1)OCCn1cc(N3C(=O)OCC3C(F)F)nc1-2)C(N)=O | viability, T/C | % | 107 |
| Cn1nccc1Nc1nccc(-c2ccn(C(CO)c3ccc(Cl)c(F)c3)c(=O)c2)n1 (configuration not stated) + CC(Nc1ncnc2nc[nH]c12)c1cc2cccc(Cl)c2c(=O)n1-c1ccccc1 | viability, T/C | % | 76.1 |
| C[C@@H](NC(=O)c1ncnc(N)c1Cl)c1ncc(C(=O)Nc2cc(C(F)(F)F)c(Cl)cn2)s1 + COc1c(OCCCN2CCOCC2)ccc2c3n(c(=NC(=O)c4cnc(N)nc4)nc12)CCN3 | viability, T/C | % | 94 |

###

# Tested on: 945468-187-T-J2-PDC spheroids viability
# run-description: Anticancer human tumor 945468-187-T-J2-PDC cell line growth inhibition [PI3K];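 also: spheroids exposed to compounds for seven days before reading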
# study-conditions: second compound 10 µM; first compound 1 µM; stronger effect = lower value; spheroids with HUVEC and MSC
# From the text: Combinatorial screen of targeted agents with the PI3K inhibitors inavolisib, alpelisib, duvelisib, and copanlisib in multi-cell type tumor spheroids A high-throughput screen of multi-cell type tumor spheroids was designed to identify active combinations of targeted small molecules and PI3K pathway inhibitors. […] Compounds. […] If the clinical Cmax for an agent had not been determined, the highest concentration tested was 10 microM. […]
reported-endpoint: viability, T/C (%)

| compound | target-of-assay | reported-endpoint | reported |
| --- | --- | --- | --- |
| Cn1ncc(Cl)c1-c1cc(C(=O)NC(CN)Cc2cccc(F)c2)sc1Cl (stereo not drawn) + Cc1nc(NC(=O)N2CCCC2C(N)=O)sc1-c1ccnc(C(C)(C)C(F)(F)F)c1 | 945468-187-T-J2-PDC spheroids viability | viability, T/C | 89 |
| C=CC(=O)N1CCN(c2nc(=O)n(-c3c(C)ccnc3C(C)C)c3nc(-c4c(O)cccc4F)c(F)cc23)C(C)C1 (stereo not drawn) + Cc1nc(NC(=O)N2CCCC2C(N)=O)sc1-c1ccnc(C(C)(C)C(F)(F)F)c1 | 945468-187-T-J2-PDC spheroids viability | viability, T/C | 73.7 |
| CC1(C)CCC(Nc2ncc(C(F)(F)F)c(-c3c[nH]c4c(P(C)(C)=O)c(C#N)ccc34)n2)CN1 (stereo not drawn) + Cc1nc(NC(=O)N2CCCC2C(N)=O)sc1-c1ccnc(C(C)(C)C(F)(F)F)c1 | 945468-187-T-J2-PDC spheroids viability | viability, T/C | 53.7 |
